Reference source for all entries: PubChem BioAssay (NCI)

Would you kindly list growth for each of these compounds?
System: A549/ATCC NSCLC
PROCEDURE_DETAILS: NCI-60 one-dose screen, 48 h (100 = growth as untreated, 0 = no growth, -100 = all killed)
MEASUREMENT_CONTEXT: 10 µM unless noted
About 83,000 compounds went through this panel and 20% of them were active in at least one assay; those are over-represented in the sample as a whole. *1 amine or outer side, *2 acyl side, *3 side chain or, on linkers, in order; H or OH if unused. Where a SMILES comes first, the peptide text is derived from it. Bridges are numbered along the chain shown (N, C = ends). Roman numbers before positions name the chains, in order. [ ]: non-standard residue; d: D form. Actinocin(1to9) = Cc1c2oc3c(C)ccc(C(=O)[*:2])c3nc-2c(C(=O)[*:1])c(N)c1=O; NMeV = CN[CH](C(=O)O)C(C)C; Sar = CNCC(=O)O
One number for each entry, in %.

Go through the list and state growth for each entry.
1. COc1cc(/C=C2\SC(=S)N(/C=C/c3nc4ccccc4[nH]c3=O)C2=O)cc(OC)c1OC
2. CCC(C)C1NC(=O)C(NC(=O)c2c3nc4c(C(=O)NC5C(=O)NC(C(C)CC)C(=O)N6CCCC6C(=O)N(C)CC(=O)N(C)C(C(C)C)C(=O)OC5C)ccc(C)c4oc-3c(C)c(=O)c2N)C(C)OC(=O)C(C(C)C)N(C)C(=O)CN(C)C(=O)C2CCCN2C1=O (configuration not stated) (I: TIP[Sar][NMeV] / II: TIP[Sar][NMeV]; ester I:1-I:C, II:1-II:C; linker I:N-II:N via Actinocin(1to9); configuration not given here)

a:
1: 67.5; 2: -15.2

* * *

Test system: K-562 leukemia
PROCEDURE_DETAILS: NCI-60 one-dose screen, 48 h
MEASUREMENT_CONTEXT: 10 µM unless noted
This is part of a sample that, as a whole, favours compounds with a hit. Of some 83,000 tested, about 20% had one in any assay. Active and inactive are the calls of the source. The calls were made as follows: active = growth percent below 10; inactive = the rest.
Assign a class; possible classes are active, inactive

{"COMPOUND": "CCCCCCCCCCCCN1C(C)=CS/C1=C\\C=C\\c1scc(C)[n+]1CCCCCCCCCCCC", "DISCRETE_LABEL": "active"}
{"COMPOUND": "COc1cc(OC)c(/C=C/c2c3ccccc3cc[n+]2C)c(OC)c1", "DISCRETE_LABEL": "active"}
{"COMPOUND": "O=Nc1ccc2ccccc2c1O", "DISCRETE_LABEL": "inactive"}

As a next step, examine the compound that follows.
q: Which outcome was assigned to CCC(C)C(N)C(=O)NC(CC(N)=O)C(=O)NC(CC(C)C)C(=O)NC(CCCCN)C(=O)NC(C)C(=O)NC(CC(C)C)C(=O)NC(C)C(=O)NC(C)C(=O)NC(CC(C)C)C(=O)NC(C)C(=O)NC(CCCCN)C(=O)NC(CCCCN)C(=O)NC(C(=O)NC(CC(C)C)C(N)=O)C(C)CC (centres undefined) in this test?
a: inactive

* * *

System: HOP-62 NSCLC
PROCEDURE_DETAILS: NCI-60 one-dose screen, 48 h (100 = growth as untreated, 0 = no growth, -100 = all killed)
MEASUREMENT_CONTEXT: 10 µM unless noted
The panel holds about 83,000 compounds, 20% with a hit somewhere; the sample as a whole holds those more often.
# strict inequality: growth < 70% yields true, everything else yields false

{"MOLECULE": "COc1ccc(C(OCC2OC(n3ccc(NC(=O)c4ccccc4)nc3=O)C(O)C2O)(c2ccccc2)c2ccccc2)cc1 (centres undefined)", "MEASUREMENT_TARGET": "HOP-62 NSCLC", "DISCRETE_LABEL": "false"}
{"MOLECULE": "O/N=C1\\c2ccccc2-c2ccc(F)cc21", "MEASUREMENT_TARGET": "HOP-62 NSCLC", "DISCRETE_LABEL": "false"}
{"MOLECULE": "O=C(c1ccccc1)C(O)C(Br)(CBr)c1ccccc1 (centres undefined)", "MEASUREMENT_TARGET": "HOP-62 NSCLC", "DISCRETE_LABEL": "false"}
{"MOLECULE": "CN(C)c1ccc(C(=C2C=CC(=[N+](C)C)C=C2)c2ccc(N(C)C)cc2)cc1", "MEASUREMENT_TARGET": "HOP-62 NSCLC", "DISCRETE_LABEL": "true"}
{"MOLECULE": "CCN(CC)CCNc1ccc([N+](=O)[O-])c2sc3ccccc3c(=O)c12", "MEASUREMENT_TARGET": "HOP-62 NSCLC", "DISCRETE_LABEL": "true"}
{"MOLECULE": "CCCOC(=O)c1nc(N(CC2CCCCC2)C(=O)NC)sc1/N=C/c1ccccc1", "MEASUREMENT_TARGET": "HOP-62 NSCLC", "DISCRETE_LABEL": "true"}
{"MOLECULE": "CC12CCC(O)CC1=CCC1C2CCC2(C)C3=NN=CC3CC12 (centres undefined)", "MEASUREMENT_TARGET": "HOP-62 NSCLC", "DISCRETE_LABEL": "false"}
{"MOLECULE": "COc1cc2c(c(OC)c1OC)-c1ccc(NCc3ccccc3)c(=O)cc1[C@@H](NC(C)=O)CC2", "MEASUREMENT_TARGET": "HOP-62 NSCLC", "DISCRETE_LABEL": "true"}
{"MOLECULE": "CCOc1cc(F)c([N+](=O)[O-])cc1[N+](=O)[O-]", "MEASUREMENT_TARGET": "HOP-62 NSCLC", "DISCRETE_LABEL": "false"}
{"MOLECULE": "O=C1CSC(=S)N1Cc1cccnc1", "MEASUREMENT_TARGET": "HOP-62 NSCLC", "DISCRETE_LABEL": "false"}

q: Lab note: confirm whether the reported growth for this molecule is below 70%, equality not counting. molecule: O=C1C=C(Cl)C(=O)c2ccccc21
a: false

q: Lab note: confirm whether the reported growth for this molecule is below 70%, equality not counting. molecule: O=[N+]([O-])C=C(c1ccccc1)c1ccccc1
a: false

* * *

Tested on: MDA-MB-231 breast
PROCEDURE_DETAILS: NCI-60 one-dose screen, 48 h
MEASUREMENT_CONTEXT: 10 µM unless noted
The panel holds about 83,000 compounds, 20% with a hit somewhere; the sample as a whole holds those more often. Calls of active or inactive are those of the source. Rule for the calls: active = growth percent below 10; inactive = the rest.
Assign a class; possible classes are active, inactive

These recorded examples may help you get a feel for the data.
{"COMPOUND": "CCOC(=O)C1=NN(c2ccccc2)C(=O)/C1=C\\N1C(=O)/C(=C/c2cccc(O)c2)SC1=S", "DISCRETE_LABEL": "inactive"}
{"COMPOUND": "CN(C)c1ccc(C(=C2C=CC(=[N+](C)C)C=C2)c2ccc(N(C)C)cc2)cc1", "DISCRETE_LABEL": "active"}
{"COMPOUND": "OC(Cc1cc(CC(O)(C(F)(F)F)C(F)(F)F)nc(CC(O)(C(F)(F)F)C(F)(F)F)c1)(C(F)(F)F)C(F)(F)F", "DISCRETE_LABEL": "active"}

q: Which outcome was assigned to NC(=S)N/N=C\c1nccc2c(N)cccc12 in this test?
a: inactive

q: Which outcome was assigned to O=C1C=CC(=O)c2c(O)c(CO)c(CO)c(O)c21 in this test?
a: inactive

* * *

Tested on: HOP-92 NSCLC
PROCEDURE_DETAILS: NCI-60 one-dose screen, 48 h (100 = growth as untreated, 0 = no growth, -100 = all killed)
MEASUREMENT_CONTEXT: 10 µM unless noted
This is part of a sample that, as a whole, favours compounds with a hit. Of some 83,000 tested, about 20% had one in any assay.
READOUT_TYPE: growth (%)
Answers are plain numbers, in %.

{"MOLECULE": "Cc1ccccc1N=C(N)Nc1ccccc1C (tested in a mixture with another compound)", "growth, %": 76.5}
{"MOLECULE": "CC(C)c1ccc(Nc2n[nH]c(=S)s2)cc1", "growth, %": 82.6}
{"MOLECULE": "CCOC(=O)NC(/C=C/c1ccccc1)NC(=O)OCC", "growth, %": 108}
{"MOLECULE": "C[C@@]1(CO)[C@H](O)CC[C@@]2(C)[C@H]1CC[C@H]1C[C@@H]3C[C@@]12CC[C@@]3(O)COC(=O)CN", "growth, %": 45.4}
{"MOLECULE": "O=C(c1ccc(O)c(Br)c1)c1ccc(O)c(Br)c1", "growth, %": 101}

Go through the list and state growth for each entry.
1. CCCCCCCCCCCC[N+]1(CCCCCCCCCCCC)CCCC(C)C1 (stereo not given)
2. Cc1cc(C(N)=O)cc(C)c1C(=O)OCCCl
3. Cc1cc(C(=O)c2ccc(Cl)cc2)ccc1O
4. CCN1/C(=C/C(C)=C/c2sc3ccc4ccccc4c3[n+]2CC)Sc2ccc3ccccc3c21
5. CC1(C)OC2C(COC(c3ccccc3)(c3ccccc3)c3ccccc3)OC(c3c[nH]c4c(N)ncnc34)C2O1 (stereo not given)
6. O=C(/C=C/c1ccccc1)c1ccccc1O

a:
1. -86.5
2. 90.1
3. 104
4. -89.1
5. 59.5
6. 74.4
